Recorded values, source the supplement of paper PMC13380429.

# Tested on: Vero E6 infected with SARS-CoV-2
# assay_comment: inhibition of SARS-CoV-2 cytopathic effect; higher = more antiviral protection, active = above 15
# reported_conditions: 100 nM; 48 h
endpoint_name: inhibition of SARS-CoV-2 cytopathic effect (%)
Use % as the unit, but write only the number.

Solved entries:
Reported inhibition of SARS-CoV-2 cytopathic effect of CC(=O)N(CC(O)CO)c1c(I)c(C(=O)NCC(O)CO)c(I)c(C(=O)NCC(O)CO)c1I (stereo not given) [iohexol] : -1.68

Value of measured inhibition of SARS-CoV-2 cytopathic effect for the entry CCC1(CC)C(=O)C=CNC1=O : -3.23

The recorded inhibition of SARS-CoV-2 cytopathic effect for O=C(Nc1ccccc1C(=O)Nc1ccc(CCO)cc1)c1ccc([N+](=O)[O-])cc1 is -1.82

More entries:
Noted for CCOC(=O)[C@H](CCc1ccccc1)N[C@@H](C)C(=O)N(CC(=O)O)C1Cc2ccccc2C1 : its inhibition of SARS-CoV-2 cytopathic effect reads 2.57

inhibition of SARS-CoV-2 cytopathic effect recorded for this compound, C#C[C@]1(O)CC[C@H]2[C@@H]3CCC4=C(CCC(=O)C4)[C@H]3CC[C@@]21C , is 1.22

So for CC[C@@H](CO)NCCN[C@@H](CC)CO , the logged inhibition of SARS-CoV-2 cytopathic effect turned out to be 4.86

Record CN1CCC(OC(c2ccccc2)c2ccccc2)CC1 , field inhibition of SARS-CoV-2 cytopathic effect: 0

response.value for COc1cccc(NC(=O)/C=C/c2ccc(Cl)cc2)c1 (field: inhibition of SARS-CoV-2 cytopathic effect) = -1

So, Nc1ccc(S(=O)(=O)c2ccc(N)cc2)cc1 ? Its inhibition of SARS-CoV-2 cytopathic effect was 0.46

GET /value?item= CN(C)C(=N)NC(=N)N &field=inhibition of SARS-CoV-2 cytopathic effect returns 2.76

* * *

# System: Vero E6 infected with SARS-CoV-2
# assay_comment: SARS-CoV-2 infection rate relative to infected DMSO; higher = more infection, active = 60 or less
# reported_conditions: 24 h
endpoint_name: SARS-CoV-2 infection rate (%)
The answer is to be given in %; state only the numeric part.

Guide cases for SARS-CoV-2 infection rate, answers given:
SARS-CoV-2 infection rate for C#CCOC(=O)C1=CCCN(C)C1 [arecaidine-propargyl-ester] (10 µM) is 93.5

Form: compound = N=C(N)SCCc1c[nH]cn1 [imetit] (10 µM) ; SARS-CoV-2 infection rate = 106

The compound Cc1c(C(=O)NN2CCCCC2)nn(-c2ccc(Cl)cc2Cl)c1-c1ccc(I)cc1 (10 µM) showed SARS-CoV-2 infection rate equal to 93

Reported SARS-CoV-2 infection rate for CC[C@H]1[C@@H](O)[C@@H]2[C@H](CC[C@]3(C)[C@@H]([C@H](C)CCC(=O)O)CC[C@@H]23)[C@@]2(C)CC[C@@H](O)C[C@@H]12 [obeticholic-acid] (10 µM) was 101

***
The measured SARS-CoV-2 infection rate associated with CC(C)(C)CC(C)(C)c1cc(Cc2cc(C(C)(C)CC(C)(C)C)cc(-n3nc4ccccc4n3)c2O)c(O)c(-n2nc3ccccc3n2)c1 [bisoctrizole] (10 µM) reads 114

* * *

Each record here notes measured inhibition of SARS-CoV-2 cytopathic effect.
# Tested on: Vero E6 infected with SARS-CoV-2
# assay_comment: inhibition of SARS-CoV-2 cytopathic effect; higher = more antiviral protection, active = above 15
# reported_conditions: 833.33 nM; 48 h
I only need the number, in %, no unit after it.

// CC1=C(C(=O)O)N2C(=O)[C@@H](NC(=O)[C@H](N)c3ccc(O)cc3)[C@H]2SC1 : inhibition of SARS-CoV-2 cytopathic effect value = -2.49

Record summary for NC[C@H](O)c1ccc(O)c(O)c1 [norepinephrine] : reported inhibition of SARS-CoV-2 cytopathic effect = 0.33

Entry O=C(c1ccc(Nc2nccc(-c3cc4ccccc4s3)n2)cc1)N1CCC(N2CCCC2)CC1 ; inhibition of SARS-CoV-2 cytopathic effect = 2.79

Note to self: inhibition of SARS-CoV-2 cytopathic effect recorded for CN1C(=O)N(c2ccc(C#N)c(C(F)(F)F)c2)C(=O)[C@]1(CO)c1ccccc1 [GLPG0492-R-enantiomer] was 1.61

So, CC[N+](CC)(CC)CCOc1ccc(/C=C/c2ccccc2)cc1 ? Its inhibition of SARS-CoV-2 cytopathic effect was 1.89

According to the records, this compound N#C/C(=C1/SC[C@@H](c2ccc(Cl)cc2Cl)S1)n1ccnc1 displays inhibition of SARS-CoV-2 cytopathic effect of 1.1

Recorded result, Cc1cccc(C)c1OCC(C)N (configuration not stated) , inhibition of SARS-CoV-2 cytopathic effect: 7.08

Field inhibition of SARS-CoV-2 cytopathic effect (entry O=C(C[C@H]1CC(c2ccc(F)cc2F)=NO1)N1CCOCC1 (racemic) ) reads 0.99
